Exercise: for every item that follows, state its recorded GI50.
Test system: HCT 116 Cells
Test description: Aurora kinase whole cell cytotoxicity assay: Sulforhodamine B
Type: cell-based
Measurement conditions: Homo sapiens, HCT116, SRB staining, 96 hours incubation

Examples from the recorded data:
>  <Test smiles>
Cc1cc(Nc2nc(Sc3ccc(NC(=O)C4CC4)cc3)nc(C(=O)NC3CCCCC3)c2N)n[nH]1

>  <Result>
1000 to 10000 nM

$$$$
>  <Test smiles>
Cc1cc(Nc2nc(Sc3ccc(NC(=O)C4CC4)cc3)nc(C(=O)NCc3cccs3)c2N)n[nH]1

>  <Result>
1000 to 10000 nM

$$$$
>  <Test smiles>
Cc1cc(Nc2nc(Sc3ccc(NC(=O)C4CC4)cc3)nc(C(=O)NCCN(C)C)c2N)n[nH]1

>  <Result>
1000 to 10000 nM

$$$$
>  <Test smiles>
CCOC(=O)c1nc(Sc2ccc(NC(=O)C3CC3)cc2)nc(Nc2cc(C)[nH]n2)c1N

>  <Result>
100 to 1000 nM

$$$$
>  <Test smiles>
CCOC(=O)c1nc(Nc2ccc(NC(=O)C3CC3)cc2)nc(Nc2cc(C)[nH]n2)c1N

>  <Result>
1000 to 10000 nM

$$$$

Look at each molecule and report its GI50.
1. Cc1cc(Nc2nc(Sc3ccc(NC(=O)C4CC4)cc3)nc(C(=O)OC3CCOCC3)c2N)n[nH]1
2. Cc1cc(Nc2nc(Sc3ccc(NC(=O)C4CC4)cc3)nc(C(=O)N3CCOCC3)c2N)n[nH]1
3. Cc1cc(Nc2nc(Sc3ccc(NC(=O)C4CC4)cc3)nc(C(=O)OCCN3CCOCC3)c2N)n[nH]1
4. Cc1cc(Nc2nc(Sc3ccc(NC(=O)C4CC4)cc3)nc(C(=O)OCCN(C)C)c2N)n[nH]1
5. Cc1cc(Nc2nc(Sc3ccc(NC(=O)C4CC4)cc3)nc(C(=O)NC3CCOCC3)c2N)n[nH]1

1: 100 to 1000 nM; 2: 1000 to 10000 nM; 3: 1000 to 10000 nM; 4: 100 to 1000 nM; 5: 100 to 1000 nM

###

Exercise: for every item that follows, state its recorded GI50.
Test system: HCT 116 Cells
Test description: Aurora kinase whole cell cytotoxicity assay: Sulforhodamine B
Format: cell-based
Measurement conditions: Homo sapiens, HCT116, SRB staining, 96 hours incubation
Description: Human tumour-derived cell lines, HCT116 or MCF7 (ATCC) were plated in a 96 well plate in DMEM containing 10% fetal bovine serum and 2 mM L-glutamine at a density of 500 HCT116 cells or 1,000 MCF7 cells per well and incubated at 37° C., 5% CO2, for 24 hours prior to the addition of experimental compounds. […] The absorbance was read at 570 nm. […] Three dose response parameters were calculated for each experimental agent. […]

Look at each compound and report its GI50.
1. COCCCNC(=O)c1nc(Sc2ccc(NC(=O)C3CC3)cc2)nc(Nc2cc(C)[nH]n2)c1N
2. Cc1cc(Nc2nc(Sc3ccc(NC(=O)C4CC4)cc3)nc(C(=O)OCC[Si](C)(C)C)c2N)n[nH]1

1. 0.1 to 1 µM
2. 1 to 10 µM

Look at each compound and report its GI50.
1. Cc1cc(Nc2nc(Sc3ccc(NC(=O)C4CC4)cc3)nc(C(=O)NC3CCN(C)CC3)c2N)n[nH]1
2. Cc1cc(Nc2nc(Sc3ccc(NC(=O)C4CC4)cc3)nc(C(=O)NCC3CCCO3)c2N)n[nH]1 (stereo not drawn)
3. Cc1cc(Nc2nc(Sc3ccc(NC(=O)C4CC4)cc3)nc(C(=O)OC3CCN(C)CC3)c2N)n[nH]1
4. Cc1cc(Nc2nc(Sc3ccc(NC(=O)C4CC4)cc3)nc(C(=O)N3CCCCC3)c2N)n[nH]1
5. Cc1cc(Nc2nc(Sc3ccc(NC(=O)C4CC4)cc3)nc(C(=O)NCc3ccco3)c2N)n[nH]1
6. CSCCOC(=O)c1nc(Sc2ccc(NC(=O)C3CC3)cc2)nc(Nc2cc(C)[nH]n2)c1N
7. Cc1cc(Nc2nc(Sc3ccc(NC(=O)C4CC4)cc3)nc(C(=O)N3CCN(C)CC3)c2N)n[nH]1

1. 0.1 to 1 µM
2. 0.1 to 1 µM
3. 0.1 to 1 µM
4. 0.1 to 1 µM
5. 1 to 10 µM
6. 0.1 to 1 µM
7. 1 to 10 µM

Each recorded value in this set is attributed to patent US8153630B2.
